Test system: A549 cells
assayExplanation: Cell viability by MTT method in A549 cells
Format: cell-based
Design: concentration or dose not given beside the values
measurementConditions: 72 hours treatment

# compound, experimentalTarget, unitsOfMeasure, Cell Viability (% inhibition) (A549)
measured = [
    ("COC(=O)c1ccc(S(=O)(=O)N[C@@H](Cc2c[nH]c3ccccc23)C(=O)Nc2ccc(N3CCOCC3)cc2)cc1", "A549 cells", "%", 4.67),
    ("O=C(Nc1ccc(N2CCOCC2)cc1)[C@H](Cc1c[nH]c2ccccc12)NS(=O)(=O)c1ccc(Br)cc1", "A549 cells", "%", 78.31),
    ("COc1ccc(C(=O)NNC(=O)[C@H](Cc2c[nH]c3ccccc23)NS(=O)(=O)c2ccc(C)cc2)cc1 [Compound 182]", "A549 cells", "%", 0.19),
    ("Cc1ccc(S(=O)(=O)N[C@@H](CC(C)C)C(=O)Nc2ncc(N3CCOCC3)s2)cc1", "A549 cells", "%", 20.70),
    ("Cc1ccc(S(=O)(=O)N[C@@H](CS)C(=O)N2CCOCC2)cc1", "A549 cells", "%", 12.16),
    ("Cc1ccc(S(=O)(=O)N[C@@H](Cc2ccc3ccccc3c2)C(=O)Nc2ccc(N3CCOCC3)cc2)cc1", "A549 cells", "%", 4.59),
    ("Cc1ccc(S(=O)(=O)N[C@@H](CO)C(=O)N2CCOCC2)cc1", "A549 cells", "%", "−2.43"),
    ("CC(C)C[C@H](NS(=O)(=O)c1ccc(C(C)C)cc1)C(=O)Nc1ccc(N2CCOCC2)cc1", "A549 cells", "%", 20.27),
    ("Cc1ccc(S(=O)(=O)N[C@@H](Cc2c[nH]c3ccccc23)C(=O)NCCCc2ccccc2)cc1", "A549 cells", "%", 67.48),
    ("CNC(=O)c1ccc(S(=O)(=O)N[C@@H](Cc2c[nH]c3ccccc23)C(=O)Nc2ccc(N3CCOCC3)cc2)cc1", "A549 cells", "%", 34.22),
]

Source: patent US20220204497A1
